System: rabbit skeletal myofibrils (approximately 90% fast fibers)
assay.details: Activation of fast skeletal myofibrils (PUMA coupled-enzyme ATPase assay at pCa25)
Assay type: biochemical
conditions: concentration at which the compound increased the enzymatic activity by 40%; calcium at pCa25; PM12 buffer pH 6.8
assay.readout: Mean AC1.4

CC(C)(Nc1ncc(-c2cncc(C(N)=O)c2)cn1)c1ncccc1Cl = B (B=1-10 uM)
CC(C)(Nc1ncc(-c2nc(CNC(=O)[C@H]3CCCN3)cs2)cn1)c1ncccc1F = D (D=>20 uM)
CC(C)(Nc1ncc(-c2cccc(C(N)=O)c2)cn1)c1ccc(S(C)(=O)=O)cc1 = D (D=>20 uM)
CC(C)(Nc1ncc(-c2ncc(CNC(=O)CN)s2)cn1)c1ncccc1F = D (D=>20 uM)
CC(=O)N1CCc2nc(NCC(C)(C)c3ccc(F)cc3)ncc2C1 = D (D=>20 uM)

Ask: Entry under review: Cc1cc(NC2CCCCC2)nc(N[C@H](C)c2ccccc2)n1 . Reported Mean AC1.4?
Reply: B (B=1-10 uM)

Ask: Do the same for Cc1cnc(N)nc1-c1cnc(NC[C@]2(c3ncccc3F)C[C@H](F)C2)nc1 please
Reply: D (D=>20 uM)

Ask: Next compound: COc1cccnc1C(C)(C)Nc1ncc(-c2cc(C#N)ccc2F)cn1
Reply: D (D=>20 uM)

Ask: // query: CCOC(=O)c1cc(-c2cnc(NC(C)(C)c3ncccc3Cl)nc2)no1
Reply: D (D=>20 uM)

Ask: Ok, now CC(C)(Nc1ncc(C(N)=O)cn1)c1ncccc1Cl
Reply: D (D=>20 uM)

Ask: # repeat for N#Cc1ccnc(-c2cnc(NC[C@]3(c4ncccc4F)C[C@H](F)C3)nc2)n1
Reply: B (B=1-10 uM)

Origin of measurements: patent US11369565B2
